These entries and their values trace back to patent US8735444B2.

# EXPERIMENT SUMMARY: Spectral properties of the fluorinated rhodamines (absorption, emission, quantum yield, lifetime)
# Format: physicochemical
# CONDITIONS USED: aqueous buffer at pH 7
Assign true to entries whose τFL meets or exceeds 4 ns; assign false to the rest.

Quick check: does CN(C)c1cc2c(cc1F)C1(OC(=O)c3ccccc31)c1cc(F)c(N(C)C)cc1O2 [Compound 27] have τFL greater than or equal to 4 ns?
false

Quick check: does CN(CCC(=O)O)C(=O)c1ccccc1-c1c2ccc(=NCC(F)(F)F)cc-2oc2cc(NCC(F)(F)F)ccc12.Cl [Compound 14a] have τFL greater than or equal to 4 ns?
true

Quick check: does O=C(O)c1ccccc1-c1c2ccc(=NCC(F)(F)F)c(S(=O)(=O)O)c-2oc2c(S(=O)(=O)O)c(NCC(F)(F)F)ccc12 [Compound 16] have τFL greater than or equal to 4 ns?
false

Quick check: does O=C1OC2(c3cc(F)c(NCC(F)(F)F)cc3Oc3cc(NCC(F)(F)F)c(F)cc32)c2ccccc21 [Compound 18] have τFL greater than or equal to 4 ns?
false
